Target: human Na,K-ATPase α2β1FXYD1 (Homo sapiens, UniProt P50993)
Type: biochemical
Conditions: read-out: Ki in nM ± SEM α2β1
RECORDED_ENDPOINT: Ki (nM)
Answer with a number only, understood to be in nM.

[[record]]
molecule = "CC1CN(CC2CC(C)(C)C2)CCC(O[C@@H]2[C@H](C)O[C@@H](O[C@@H]3[C@H](C)O[C@@H](O[C@H]4CC[C@@]5(C)C(CCC6C5C[C@H](O)[C@]5(C)[C@@H](C7=CC(=O)OC7)CC[C@]65O)C4)C[C@@H]3O)C[C@@H]2O)O1 (some centres unmarked) [DMDMcB]"
recorded_endpoint = "Ki"
unit_symbol = "nM"
readout_value = 8.6


QUERY: Please report the recorded Ki for CC1CN(CC(F)(F)F)CCC(O[C@@H]2[C@H](C)O[C@@H](O[C@@H]3[C@H](C)O[C@@H](O[C@H]4CC[C@@]5(C)C(CCC6C5C[C@H](O)[C@]5(C)[C@@H](C7=CC(=O)OC7)CC[C@]65O)C4)C[C@@H]3O)C[C@@H]2O)O1 (some centres unmarked) [DCF3] .
RESULT: 28.6

###

Molecular target: human Na,K-ATPase α2β2FXYD1 (Homo sapiens (Human))
Type: biochemical
Conditions: read-out: Ki in nM ± SEM α2β2
RECORDED_ENDPOINT: Ki (nM)
// return numeric value only (unit: nM, not printed)

In the examples that follow, each entry is paired with its recorded Ki.
[[record]]
molecule = "CC1CN(Cc2ccccc2)CCC(O[C@@H]2[C@H](C)O[C@@H](O[C@@H]3[C@H](C)O[C@@H](O[C@H]4CC[C@@]5(C)C(CCC6C5C[C@H](O)[C@]5(C)[C@@H](C7=CC(=O)OC7)CC[C@]65O)C4)C[C@@H]3O)C[C@@H]2O)O1 (some centres unmarked)"
unit_symbol = "nM"
readout_value = 6.8

[[record]]
molecule = "CC1CN(CS(C)(=O)=O)CCC(O[C@@H]2C(C)O[C@@H](OC3C(C)OC(O[C@H]4CC[C@@]5(C)C(CCC6C5CC(O)[C@]5(C)[C@@H](C7=CC(=O)OC7)CC[C@]65O)C4)C[C@@H]3O)C[C@@H]2O)O1 (stereo in doubt)"
unit_symbol = "nM"
readout_value = 123

[[record]]
molecule = "CC1CN(C2CCCCC2)CCC(O[C@@H]2C(C)O[C@@H](OC3C(C)OC(O[C@H]4CC[C@@]5(C)C(CCC6C5CC(O)[C@]5(C)[C@@H](C7=CC(=O)OC7)CC[C@]65O)C4)C[C@@H]3O)C[C@@H]2O)O1 (stereo in doubt)"
unit_symbol = "nM"
readout_value = 15.3


Now look at this one.
QUERY: Could you share what Ki was measured for CC1CN(C(C)(C)C)CCC(O[C@@H]2[C@H](C)O[C@@H](O[C@@H]3[C@H](C)O[C@@H](O[C@H]4CC[C@@]5(C)C(CCC6C5C[C@H](O)[C@]5(C)[C@@H](C7=CC(=O)OC7)CC[C@]65O)C4)C[C@@H]3O)C[C@@H]2O)O1 (some centres unmarked) , tested on human Na,K-ATPase α2β2FXYD1 (Homo sapiens (Human))?
RESULT: 18.4

###

Biological target: human Na,K-ATPase α2β3FXYD1 (Homo sapiens (Human), UniProt P50993+P54709)
Assay: biochemical
Format: biochemical
Conditions: read-out: Ki in nM ± SEM α2β3
Entries and their measured Ki follow.
# value in nM; strip the unit string

[[record]]
molecule = "CC1CN(CC(F)(F)F)CCC(O[C@@H]2[C@H](C)O[C@@H](O[C@@H]3[C@H](C)O[C@@H](O[C@H]4CC[C@@]5(C)C(CCC6C5C[C@H](O)[C@]5(C)[C@@H](C7=CC(=O)OC7)CC[C@]65O)C4)C[C@@H]3O)C[C@@H]2O)O1 (some centres unmarked)"
readout_value = 12.4


Proceed to the following item.
QUERY: Sample CC1CN(CCS(N)(=O)=O)CCC(O[C@@H]2C(C)O[C@@H](OC3C(C)OC(O[C@H]4CC[C@@]5(C)C(CCC6C5CC(O)[C@]5(C)[C@@H](C7=CC(=O)OC7)CC[C@]65O)C4)C[C@@H]3O)C[C@@H]2O)O1 (stereo in doubt) — what was its Ki?
RESULT: 20.1

Values were extracted from patent US10668094B2.
